Attribute: inhibition
- EXPERIMENTAL_SYSTEM: Transforming growth factor beta-1 proprotein/Mothers against decapentaplegic homolog 3 (Mus musculus) (UniProt P04202+Q8BUN5)
- Sequence (P04202 279-390 limits assumed): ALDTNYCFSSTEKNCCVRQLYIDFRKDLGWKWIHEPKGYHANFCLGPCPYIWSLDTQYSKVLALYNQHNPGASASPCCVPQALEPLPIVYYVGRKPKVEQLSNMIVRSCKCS
- Sequence (Q8BUN5 2-425 partner limits assumed): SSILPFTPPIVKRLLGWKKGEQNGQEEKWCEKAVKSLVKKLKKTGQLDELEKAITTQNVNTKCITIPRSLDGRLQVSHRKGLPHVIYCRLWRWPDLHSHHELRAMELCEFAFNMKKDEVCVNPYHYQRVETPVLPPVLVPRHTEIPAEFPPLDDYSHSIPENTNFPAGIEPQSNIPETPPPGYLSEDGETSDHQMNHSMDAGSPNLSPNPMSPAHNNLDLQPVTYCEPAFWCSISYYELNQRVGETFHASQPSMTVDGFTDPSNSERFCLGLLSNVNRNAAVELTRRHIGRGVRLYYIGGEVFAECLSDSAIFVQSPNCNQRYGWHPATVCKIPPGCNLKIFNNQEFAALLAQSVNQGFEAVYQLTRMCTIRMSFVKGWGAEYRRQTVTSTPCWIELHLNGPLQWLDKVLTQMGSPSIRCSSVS
- PROTOCOL_TEXT: Inhibition of TGF-beta1/smad3 signaling pathway in mouse NIH/3T3 cells at 10 uM after 18 hrs by CAGA-luciferase reporter gene assay relative to control
- Format: cell-based
Number first, unit second.

MOLECULE_SMILES: C=C1C(=O)O[C@@H]2C[C@@]3(C)CCC[C@H](C)[C@@]34O[C@H]4[C@H]12
inhibition: 77.7%
//
MOLECULE_SMILES: C=C1C(=O)O[C@@H]2C[C@@]3(C)CCC(=O)C(=C)[C@@H]3C[C@H]12
inhibition: 2.24%
//
MOLECULE_SMILES: C#CCCCC(=O)O[C@@H]1CC[C@]2(C)C[C@H]3OC(=O)C(=C)[C@H]3C[C@H]2[C@@]12CO2
inhibition: 6.65%
//
MOLECULE_SMILES: C=C1C(=O)O[C@@H]2C[C@@]3(C)CC[C@@H](OC(=O)c4ccccc4)[C@]4(CO4)[C@@H]3C[C@H]12
inhibition: 26.7%
//
MOLECULE_SMILES: C=C1C(=O)O[C@@H]2C[C@@]3(C)CC[C@@H](O[Si](C)(C)C(C)(C)C)C(=C)[C@@H]3C[C@H]12
inhibition: 27.8%

Let us examine a further case.
For reference, reported inhibition for C=C1C(=O)O[C@@H]2C[C@@]3(C)CC[C@@H](OC(=O)[C@@H](NC(=O)OC(C)(C)C)C(C)C)[C@]4(CO4)[C@@H]3C[C@H]12 stands at 17.1%
